Target: wild-type LmPYK (Leishmania mexicana)
Sequence (Q27686 whole entry): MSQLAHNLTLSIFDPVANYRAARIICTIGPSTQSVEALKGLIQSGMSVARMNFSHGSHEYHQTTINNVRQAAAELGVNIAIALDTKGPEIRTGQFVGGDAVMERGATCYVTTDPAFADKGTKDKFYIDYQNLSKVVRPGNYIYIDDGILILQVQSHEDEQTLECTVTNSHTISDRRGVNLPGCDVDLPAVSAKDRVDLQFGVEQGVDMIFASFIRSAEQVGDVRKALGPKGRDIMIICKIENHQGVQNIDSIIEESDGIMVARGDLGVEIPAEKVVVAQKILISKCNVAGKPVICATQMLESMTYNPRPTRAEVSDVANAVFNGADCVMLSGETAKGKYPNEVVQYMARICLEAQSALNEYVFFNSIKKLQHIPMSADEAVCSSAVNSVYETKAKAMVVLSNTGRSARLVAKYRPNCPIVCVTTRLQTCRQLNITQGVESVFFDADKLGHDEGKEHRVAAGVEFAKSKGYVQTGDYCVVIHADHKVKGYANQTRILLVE
So I've got a bunch of molecules here, and I need their IC50 values.
Answers are plain numbers, in µM.

Input smiles: Cc1ccc(C)c(SC2=NS(=O)(=O)c3ccccc32)c1
Number: 5

For the next question, use this molecule.
Q: Look up IC50: Cc1ccc(C)c(OC2=NS(=O)(=O)c3ccccc32)c1
A: 10
